assayedSystem: Short transient receptor potential channel 4 (Mus musculus) (UniProt Q9QUQ5)
protocol: calcium flux activators in TRPC4/5HT1a cells, counter-screen for TRPC4 activator project, cell-based, second counter screen, HEK293 TRPC4/5HT1a, Fluo-4 (AID 434977)
experimentalConditions: Fluo-4 calcium flux, at 10 µM
The source made the active and inactive calls.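 The calls were made as follows: active = calcium signal rise above buffer-control mean plus 5 SD in both duplicates, and also a hit in the primary screen; inactive = the rest.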
parameterMeasured: activation

Use the examples below as a reference point.
{"compound": "OCC1(CCCc2ccccc2)CCN(Cc2cc(F)ccc2F)CC1", "parameterMeasured": "activation", "readoutValue": "inactive"}
{"compound": "c1ccc(-c2ccccc2OCCOCCN2CCCCC2)cc1", "parameterMeasured": "activation", "readoutValue": "inactive"}
{"compound": "COc1ccccc1Nc1nc(NCC2CCCO2)c2ccccc2n1 (stereo unspecified)", "parameterMeasured": "activation", "readoutValue": "inactive"}
{"compound": "CCCn1c(=N)n(CC(=O)C(C)(C)C)c2ccccc21", "parameterMeasured": "activation", "readoutValue": "inactive"}
{"compound": "Cn1c2ccccc2c(=O)c2c(=O)n(-c3ccccc3)c(-c3ccc(C(C)(C)C)cc3)nc21", "parameterMeasured": "activation", "readoutValue": "inactive"}

## Input Entry CC(OC(=O)CNC(=O)c1ccccc1F)C(=O)Nc1nc(-c2ccccc2)cs1 (stereo unspecified) needs its activation filled in; supply it.
## Output inactive
